FYI, the data here is from patent US20240059769A1.

target: T1, recombinant cynomolgus monkey IL-13 (cynomolgus monkey, UniProt Q0PW92 21-132); test: SPR
T1 construct: bought; also called rc-IL-13; cIL-13
T1 sequence (Q0PW92 entry or part of it): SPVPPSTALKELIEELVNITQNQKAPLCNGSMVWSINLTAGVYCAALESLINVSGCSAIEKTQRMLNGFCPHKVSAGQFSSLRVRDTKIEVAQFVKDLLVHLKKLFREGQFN
Measured Quantity: pKd
Recall that pKd is obtained by taking minus log10 of the concentration measured in molar.

>  <Binder>
BDG38.076 (antibody, V domains shown, IgG1) VH: QMQLVESGGGVVQPGRSLRLSCAASGFAFRTYGMHWVRQAPGKGLEWVAVIWDDGSATHYADSVKGRFTITRDNSKNTLNLQMNSLRAEDTAVYYCVRAPQWYLTAEAFDLWGQGTMVTVSS VL: SYVLTQPPSVSVAPGETASITCGGNMIGGYLVHWYQQKPGQAPLLVIYDDVDRPARIPERFSGSNSGNTATLTISRVEAGDEADYYCQVWDHDTNHMVFGGGTKLTVL

>  <pKd>
9.09

$$$$

Task: Quick one: pKd for BDG38.092 (antibody, V domains shown, IgG1) VH: QMQLVESGGGVVQPGRSLTLSCAASGFEFRTYGMHWVRQAPGKGLEWLAVIWDDGSNTHYADSVKGRFTITRDNSKNTLNLQMNSLRVEDTAVYYCVRAPQWYLTAEAFDLWGQGTMVTVSS VL: SYVLTQPPSVSVAPGETATITCGGNLIGARLVHWYQQKPGQAPVLVIYDDSDRPSRIPERFSGSNIGNTATLTISDVEEGDEADYYCQVWDYYSDHMVFGGGTKLTVL ?
Result: 10.37

Task: Proceed to BDG38.128 (antibody, V domains shown, IgG1) VH: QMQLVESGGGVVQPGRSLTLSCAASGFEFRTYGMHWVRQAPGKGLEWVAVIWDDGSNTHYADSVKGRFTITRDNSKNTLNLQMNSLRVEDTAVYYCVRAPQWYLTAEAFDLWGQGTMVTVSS VL: SYILTQPPSVSVAPGETATITCGGNLIGAKLVHWYQQKPGQAPVLVIYDDSDRPSRIPERFSGSNSGNTATLTISDVEEGDEADYYCQVWDYYADTMVFGGGTKLTVL
Result: 9.99
